# Test: Chemical and physical stability studies under ICH storage conditions (extraction, HPLC, appearance)
# Format: physicochemical
# Experimental Setup: in Composition A; 40° C./75% RH; two months
Where a name gives a salt, the structure may show the parent alone.
Readout Type: calc. percentage of actives after storage for two months, 40° C. (%)

Molecule	Unit Abbreviation	Measured Value
CN(C)CCC=C1c2ccccc2CCc2ccccc21 [Amitriptyline Hydrochloride, Amitriptyline hydrochloride]	%	102
CNC1(c2ccccc2Cl)CCCCC1=O (stereo not shown) [Ketamine Hydrochloride, Ketamine hydrochloride]	%	102
CCCOC(=O)c1ccc(O)cc1	%	103
COC(=O)c1ccc(O)cc1	%	102

* * *

# Test: Chemical and physical stability studies under ICH storage conditions (extraction, HPLC, appearance)
# Format: physicochemical
# Experimental Setup: in Composition A; 30° C./60% RH; one month
Where a name gives a salt, the structure may show the parent alone.
Some compounds, each annotated with its measured calc. percentage of actives after storage for one month, 30° C..
Readout Type: calc. percentage of actives after storage for one month, 30° C.

Compound	Measured Value
CN(C)CCC=C1c2ccccc2CCc2ccccc21 [Amitriptyline Hydrochloride, Amitriptyline hydrochloride]	102%
CCCOC(=O)c1ccc(O)cc1	102%
COC(=O)c1ccc(O)cc1	102%
CNC1(c2ccccc2Cl)CCCCC1=O (stereo not shown) [Ketamine Hydrochloride, Ketamine hydrochloride]	102%

Values from patent US6638981B2
